Hello, the source for this data is patent US20260374782A1, in case you need it.

Target: NKCC1 (Homo sapiens)
Construct: endogenous in cells; host or cells: native HEK293 cells
Assay: NKCC1-mediated K+ influx (83Rb tracer uptake) in native HEK293 cells, hypertonic saline, 100 μM ouabain
Assay type: cell-based
Details: HEK293; 20 μM; no drug = 1000, 20 μM bumetanide = 0; read-out: NKCC1 mediated flux inhibition at 20 μM (%)
Measured inhibition at 20 µM accompanies every entry in the list below.
REPORTED_METRIC: inhibition at 20 µM

COMPOUND	REPORTED_METRIC	RESULT
CCCCNc1cc(C(=O)OC)cc(S(=N)(=O)NCCc2nccs2)c1Oc1ccccc1 (centres unmarked)	inhibition at 20 µM	10 to 30%
CCCCNc1cc(C(=O)O)cc(S(=O)(=O)Nc2ccccc2)c1Oc1ccccc1	inhibition at 20 µM	≥ 75%
CCCCNc1cc(C(=O)NOC)cc(S(=N)(=O)N2Cc3ccccc3C2)c1Oc1ccccc1 (centres unmarked)	inhibition at 20 µM	10 to 30%
CCCCNc1cc(C(=O)OC)cc(S(=N)(=O)NC2CC2)c1Oc1ccccc1 (centres unmarked)	inhibition at 20 µM	10 to 30%
CCCCNc1cc(C(=O)O)cc(S(=N)(=O)Nc2ccncc2)c1Oc1ccccc1 (centres unmarked)	inhibition at 20 µM	≥ 75%
CCCCNc1cc(C(=O)O)cc(S(=N)(=O)Nc2ccccn2)c1Oc1ccccc1 (centres unmarked)	inhibition at 20 µM	≥ 75%
CCCCNc1cc(C(=O)OC)cc(S(=N)(=O)NCCOC)c1Oc1ccccc1 (centres unmarked)	inhibition at 20 µM	10 to 30%
CCCCNc1cc(C(=O)OC)cc(S(=N)(=O)NC23CC(C2)C3)c1Oc1ccccc1 (centres unmarked)	inhibition at 20 µM	30 to 50%
CCCCNc1cc(C(=O)OC)cc(S(=N)(=O)N(C)c2ccccc2)c1Oc1ccccc1 (centres unmarked)	inhibition at 20 µM	10 to 30%
CCCCNc1cc(C(=O)O)cc(S(=N)(=O)Nc2cncnc2)c1Oc1ccccc1 (centres unmarked)	inhibition at 20 µM	≥ 75%
CCCCNc1cc(C(=O)O)cc(S(=N)(=O)Nc2ncccn2)c1Oc1ccccc1 (centres unmarked)	inhibition at 20 µM	50 to 75%
CCCCNc1cc(C(=O)NOC)cc(S(=N)(=O)Nc2ccccc2)c1Oc1ccccc1 (centres unmarked)	inhibition at 20 µM	30 to 50%
CCCCNc1cc(C(=O)OC)cc(S(=N)(=O)NCC2CCCCC2)c1Oc1ccccc1 (centres unmarked)	inhibition at 20 µM	30 to 50%
CCCCNc1cc(C(=O)OC)cc(S(=N)(=O)NCCc2ccccc2)c1Oc1ccccc1 (centres unmarked)	inhibition at 20 µM	30 to 50%
CCCCNc1cc(C(=O)O)cc(S(=N)(=O)Nc2ccn(C)n2)c1Oc1ccccc1 (centres unmarked)	inhibition at 20 µM	≥ 75%
CCCCNc1cc(C(=O)OC)cc(S(=N)(=O)NCCc2cccc(Cl)c2)c1Oc1ccccc1 (centres unmarked)	inhibition at 20 µM	30 to 50%
CCCCNc1cc(C(=O)O)cc(S(=N)(=O)NCCCC)c1Oc1ccccc1 (centres unmarked)	inhibition at 20 µM	≥ 75%

---

Target: NKCC1 (Homo sapiens, UniProt P55011)
Construct: endogenous in cells; host or cells: native HEK293 cells
Sequence (P55011 whole entry): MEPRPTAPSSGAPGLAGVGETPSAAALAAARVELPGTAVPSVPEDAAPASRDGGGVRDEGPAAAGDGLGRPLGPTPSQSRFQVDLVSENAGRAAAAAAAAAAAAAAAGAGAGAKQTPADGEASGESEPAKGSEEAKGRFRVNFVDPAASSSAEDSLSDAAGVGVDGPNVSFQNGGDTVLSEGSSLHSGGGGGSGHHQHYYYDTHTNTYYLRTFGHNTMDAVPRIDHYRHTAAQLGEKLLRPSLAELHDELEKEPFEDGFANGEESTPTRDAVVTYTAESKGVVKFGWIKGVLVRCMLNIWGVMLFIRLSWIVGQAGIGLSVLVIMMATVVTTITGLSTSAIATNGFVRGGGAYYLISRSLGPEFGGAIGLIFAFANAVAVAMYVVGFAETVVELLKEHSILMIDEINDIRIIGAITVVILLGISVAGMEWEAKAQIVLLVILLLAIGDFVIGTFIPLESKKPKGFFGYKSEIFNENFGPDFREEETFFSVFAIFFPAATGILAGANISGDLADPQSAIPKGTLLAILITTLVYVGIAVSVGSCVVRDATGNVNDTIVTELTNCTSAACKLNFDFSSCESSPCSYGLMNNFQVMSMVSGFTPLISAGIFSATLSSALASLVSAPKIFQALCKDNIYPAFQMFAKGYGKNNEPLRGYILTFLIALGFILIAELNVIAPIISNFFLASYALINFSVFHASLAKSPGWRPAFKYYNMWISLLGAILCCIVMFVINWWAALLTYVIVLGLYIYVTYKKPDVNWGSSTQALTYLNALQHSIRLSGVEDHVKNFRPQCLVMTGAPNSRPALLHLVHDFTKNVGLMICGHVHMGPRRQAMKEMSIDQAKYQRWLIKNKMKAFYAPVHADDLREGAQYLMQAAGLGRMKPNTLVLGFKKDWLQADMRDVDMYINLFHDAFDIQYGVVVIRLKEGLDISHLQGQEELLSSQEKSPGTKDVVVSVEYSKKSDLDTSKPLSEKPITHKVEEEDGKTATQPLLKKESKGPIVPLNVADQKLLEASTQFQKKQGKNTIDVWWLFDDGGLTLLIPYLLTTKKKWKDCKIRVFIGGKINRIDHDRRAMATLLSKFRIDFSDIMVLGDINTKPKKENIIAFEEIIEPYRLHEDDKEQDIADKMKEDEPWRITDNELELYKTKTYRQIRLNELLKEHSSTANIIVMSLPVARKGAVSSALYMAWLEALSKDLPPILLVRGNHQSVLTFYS
Test: NKCC1-mediated K+ influx (83Rb tracer uptake) in native HEK293 cells, hypertonic saline, 100 μM ouabain
Type: cell-based
Conditions: HEK293; 2 μM; no drug = 1000, 20 μM bumetanide = 0; read-out: NKCC1 mediated flux inhibition at 2 μM (%)

COMPOUND	TARGET_UNDER_TEST	inhibition at 2 µM
CCCCNc1cc(C(=O)NOC)cc(S(=N)(=O)NCc2cccc(Cl)c2)c1Oc1ccccc1 (stereo not shown)	NKCC1 (Homo sapiens, UniProt P55011)	30 to 50%
CCCCNc1cc(C(=O)OC)cc(S(=N)(=O)NCC2CCN(C)CC2)c1Oc1ccccc1 (stereo not shown)	NKCC1 (Homo sapiens, UniProt P55011)	30 to 50%
CCCCNc1cc(C(=O)O)cc(S(=N)(=O)N2CC3CCC(C2)O3)c1Oc1ccccc1 (stereo not shown)	NKCC1 (Homo sapiens, UniProt P55011)	50 to 75%
CCCCNc1cc(C(=O)O)cc(S(=N)(=O)N(C)C)c1Oc1ccccc1 (stereo not shown)	NKCC1 (Homo sapiens, UniProt P55011)	30 to 50%

---

Measured inhibition at 2 µM accompanies every entry in the list below.
Target: NKCC1 (Homo sapiens)
Construct: endogenous in cells; host or cells: native HEK293 cells
Assay: NKCC1-mediated K+ influx (83Rb tracer uptake) in native HEK293 cells, hypertonic saline, 100 μM ouabain
Assay type: cell-based
Details: HEK293; 2 μM; no drug = 1000, 20 μM bumetanide = 0; read-out: NKCC1 mediated flux inhibition at 2 μM (%)

MOLECULE	TARGET_UNDER_TEST	inhibition at 2 µM
CCCCNc1cc(C(=O)OC)cc(S(=N)(=O)Nc2nccs2)c1Oc1ccccc1 (stereo not drawn) [Compound 43]	NKCC1 (Homo sapiens)	30 to 50%
CCCCNc1cc(C(=O)O)cc(S(=N)(=O)NCc2cccnc2)c1Oc1ccccc1 (stereo not drawn) [Compound 83]	NKCC1 (Homo sapiens)	30 to 50%
CCCCNc1cc(C(=O)O)cc(S(=N)(=O)Nc2ccncc2)c1Oc1ccccc1 (stereo not drawn) [Compound 91]	NKCC1 (Homo sapiens)	30 to 50%
CCCCNc1cc(C(=O)OC)cc(S(=N)(=O)NCc2cncnc2)c1Oc1ccccc1 (stereo not drawn) [Compound 15]	NKCC1 (Homo sapiens)	30 to 50%
CCCCNc1cc(C(=O)NCCC(F)(F)F)cc(S(=N)(=O)Nc2ccccc2)c1Oc1ccccc1 (stereo not drawn) [Compound 120]	NKCC1 (Homo sapiens)	30 to 50%
CCCCNc1cc(C(=O)O)cc(S(=N)(=O)N2CCC(c3ccccc3)CC2)c1Oc1ccccc1 (stereo not drawn) [Compound 66]	NKCC1 (Homo sapiens)	30 to 50%
CCCCNc1cc(C(=O)OC)cc(S(=N)(N)=O)c1Oc1ccccc1 (stereo not drawn) [Compound 25]	NKCC1 (Homo sapiens)	30 to 50%
CCCCNc1cc(C(=O)O)cc(S(=N)(=O)N2CCCC2)c1Oc1ccccc1 (stereo not drawn) [Compound 53]	NKCC1 (Homo sapiens)	30 to 50%
CCCCNc1cc(C(=O)OC)cc(S(=N)(=O)N2Cc3ccccc3C2)c1Oc1ccccc1 (stereo not drawn) [Compound 24]	NKCC1 (Homo sapiens)	10 to 30%
CCCCNc1cc(C(=O)NCCOC)cc(S(=N)(=O)NCc2cccc(Cl)c2)c1Oc1ccccc1 (stereo not drawn) [Compound 118]	NKCC1 (Homo sapiens)	10 to 30%
CCCCNc1cc(C(=O)O)cc(S(=N)(=O)Nc2cccc(OC)c2)c1Oc1ccccc1 (stereo not drawn) [Compound 65]	NKCC1 (Homo sapiens)	50 to 75%
CCCCNc1cc(C(=O)NC)cc(S(=N)(=O)NCc2cccc(Cl)c2)c1Oc1ccccc1 (stereo not drawn) [Compound 116]	NKCC1 (Homo sapiens)	30 to 50%
CCCCNc1cc(C(=O)O)cc(S(=N)(=O)Nc2cccnc2)c1Oc1ccccc1 (stereo not drawn) [Compound 64]	NKCC1 (Homo sapiens)	50 to 75%
CCCCNc1cc(C(=O)NOC)cc(S(=N)(=O)NC2CCOCC2)c1Oc1ccccc1 (stereo not drawn) [Compound 121]	NKCC1 (Homo sapiens)	30 to 50%
CCCCNc1cc(C(=O)OC)cc(S(=N)(=O)Nc2ccncc2)c1Oc1ccccc1 (stereo not drawn) [Compound 44]	NKCC1 (Homo sapiens)	30 to 50%
CCCCNc1cc(C(=O)O)cc(S(=N)(=O)Nc2ccccc2Cl)c1Oc1ccccc1 (stereo not drawn) [Compound 77]	NKCC1 (Homo sapiens)	30 to 50%
CCCCNc1cc(C(=O)NC)cc(S(=N)(=O)N2Cc3ccccc3C2)c1Oc1ccccc1 (stereo not drawn) [Compound 112]	NKCC1 (Homo sapiens)	10 to 30%
CCCCNc1cc(C(=O)O)cc(S(=N)(=O)Nc2cnccn2)c1Oc1ccccc1 (stereo not drawn) [Compound 73]	NKCC1 (Homo sapiens)	≥ 75%
CCCCNc1cc(C(=O)OC)cc(S(=N)(=O)N2CCOCC2)c1Oc1ccccc1 (stereo not drawn) [Compound 6]	NKCC1 (Homo sapiens)	10 to 30%
CCCCNc1cc(C(=O)O)cc(S(=N)(=O)N2CCCCCC2)c1Oc1ccccc1 (stereo not drawn) [Compound 61]	NKCC1 (Homo sapiens)	30 to 50%
CCCCNc1cc(C(=O)NOC)cc(S(=N)(=O)N2Cc3ccccc3C2)c1Oc1ccccc1 (stereo not drawn) [Compound 113]	NKCC1 (Homo sapiens)	30 to 50%
CCCCNc1cc(C(=O)O)cc(S(=N)(=O)NCc2nccs2)c1Oc1ccccc1 (stereo not drawn) [Compound 85]	NKCC1 (Homo sapiens)	30 to 50%
CCCCNc1cc(C(=O)OC)cc(S(=N)(=O)NCc2ccn(C)n2)c1Oc1ccccc1 (stereo not drawn) [Compound 42]	NKCC1 (Homo sapiens)	10 to 30%
CCCCNc1cc(C(=O)O)cc(S(=N)(=O)NCC2CCN(C(C)=O)CC2)c1Oc1ccccc1 (stereo not drawn) [Compound 97]	NKCC1 (Homo sapiens)	30 to 50%
CCCCNc1cc(C(=O)O)cc(S(=N)(=O)NC2CC2)c1Oc1ccccc1 (stereo not drawn) [Compound 60]	NKCC1 (Homo sapiens)	10 to 30%
CCCCNc1cc(C(=O)O)cc(S(=N)(=O)Nc2cccc(Cl)c2)c1Oc1ccccc1 (stereo not drawn) [Compound 70]	NKCC1 (Homo sapiens)	≥ 75%
CCCCNc1cc(C(=O)OC)cc(S(=O)(=O)Nc2ccccc2)c1Oc1ccccc1 [Compound 124]	NKCC1 (Homo sapiens)	30 to 50%
CCCCNc1cc(C(=O)O)cc(S(=N)(=O)NCc2cccc(Cl)c2)c1Oc1ccccc1 (stereo not drawn) [Compound 71]	NKCC1 (Homo sapiens)	≥ 75%
CCCCNc1cc(C(=O)O)cc(S(=N)(=O)N2CCCCC2)c1Oc1ccccc1 (stereo not drawn) [Compound 54]	NKCC1 (Homo sapiens)	30 to 50%
CCCCNc1cc(C(=O)O)cc(S(=N)(=O)NCCCC)c1Oc1ccccc1 (stereo not drawn) [Compound 94]	NKCC1 (Homo sapiens)	50 to 75%
CCCCNc1cc(C(=O)O)cc(S(=O)(=Nc2ccccc2)N2CCCCCC2)c1Oc1ccccc1 (stereo not drawn) [Compound 101]	NKCC1 (Homo sapiens)	10 to 30%
CCCCNc1cc(C(=O)OC)cc(S(=N)(=O)NCc2ccccc2)c1Oc1ccccc1 (stereo not drawn) [Compound 8]	NKCC1 (Homo sapiens)	10 to 30%
CCCCNc1cc(C(=O)OC)cc(S(C)(=O)=NC)c1Oc1ccccc1 (stereo not drawn) [Compound 133]	NKCC1 (Homo sapiens)	30 to 50%
